Cited source for all entries: PubChem BioAssay (NCI)

system: HCC-2998 colon; assay: NCI tumour cell line growth inhibition, 48 h; in the data active means GI50 below about 0.43 µM; inactive means the rest
Lab note: assign the record to one of yes (1) for active, no (0) for inactive

In [3]: df
Out[3]:
                                   molecule  subject_of_test  class_name
0  C=C1C[C@@H]2O[C@H]3[C@H]4[C@@H](CC[C@@](C)(OC(=O)CCC)[C@H]42)[C@@H](C)C(=O)O[C@@]3(C)CC[C@H]1OO   HCC-2998 colon      no (0)
1  COc1ccc(C2=Nn3c(nnc3-n3nc(C)cc3C)SC2)cc1   HCC-2998 colon     yes (1)
2  COc1cc2c3cc1Oc1c(OC)c(OC)cc4c1C(Cc1ccc(O)c(c1)Oc1ccc(cc1)CC3N(C)CC2)N(C)CC4 (centres undefined)   HCC-2998 colon      no (0)

We next turn to a different molecule, shown below.
Task: Hi, do you know how `COc1cc(/C=C2\SC(N3CCCCC3)=NC2=O)ccc1OCCCCCCOc1ccc(/C=C2\SC(N3CCCCC3)=NC2=O)cc1OC` came out in this test?
Output: no (0)
